Test system: PAK7
test.parameters: concentration: 1 μM, replicates: in singlicate; n = 1;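 also: KINOMEscan kinase panel screen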
readout.type: %Inh (%)
Give bare numbers, in %.

The following compounds have reported results that may help.
compound	quantitative.readout
O=C(c1ccc(-c2cc(-c3c[nH]nc3-c3ccccn3)ccn2)cc1)N1CCOCC1 [GW812171]	0
O=C(NOCC1CC1)c1ccc(F)c(F)c1Nc1ccc(I)cc1Cl	3
O=C(NCCCN1CCOCC1)c1cccc(Nc2nccc(Nc3ccc(Oc4ccccc4)cc3)n2)c1 [GW663929]	12
COc1ccc(Nc2ncc(C#N)c(Nc3ccccc3C(N)=O)n2)cc1N1CCN(C)CC1.Cl [GSK1558669]	99.9
Cn1cc(-c2ccc3c(c2)CCN3C(=O)Cc2ccccc2Cl)c2c(N)ncnc21 [GSK2608885]	23
Cc1c(Cn2c(C)nn3c(=O)cc(N4CCOC(C)C4)nc23)cccc1C(F)(F)F (stereo not drawn) [GSK2344444]	0
O=c1cc(N2CCOCC2)nc2n(Cc3cccc(Cl)c3Cl)c(C3CC3)nn12 [GSK2358994]	0
Cc1nnc(-c2ccc(C)c(-c3ccc(C(=O)Nc4ccc(NS(C)(=O)=O)cc4)cc3)c2)o1 [GW702865]	6

Tell me its %Inh given Cc1cccc(-c2nc(-c3ccc(S(C)(=O)=O)cc3)sc2-c2ccncc2)c1 as the entry. 0

====

System: CDK4-cyclinD1
test.parameters: concentration: 1 μM, replicates: in singlicate; n = 1
readout.type: %Inh (%)
Answers are plain numbers, in %.

N#Cc1c(N2CCOCC2)sc(-c2ccn[nH]2)c1-c1ccc(Cl)cc1 31
O=C1NC(=O)C(N2CCc3ccccc32)=C1c1cccc(Cl)c1 0
c1ccc(-c2cc(-c3c[nH]nc3-c3ccccn3)ccn2)cc1 0
CN1c2ccc(NCc3ccc(F)cc3)cc2-c2c(cnn2C)S1(=O)=O 21
CC(C)Oc1ccc2c(-c3ccnc(Nc4ccc(N5CCN(C)CC5)cc4)n3)cnn2n1 94.4

Hi there! I need %Inh for each item below, if you can.
1. O=C(NCCNc1ccnc(Nc2ccc(F)cc2)n1)Nc1ccccc1F
2. Cc1ccc(NC(=O)c2ccnc(N3CCN(C)CC3)c2)cc1-c1ccc(C(=O)NCC2CC2)cc1
3. Nc1nccc(-c2c(-c3ccc(F)cc3)ncn2C2CCN(CC(F)(F)F)CC2)n1
4. NCCNS(=O)(=O)c1ccc(-c2ccnc3[nH]ccc23)cc1

[0, 0, 49, 0]

====

System: NEK6
test.parameters: concentration: 1 μM, replicates: in singlicate; n = 1
readout.type: %Inh (%)
Numbers only, in %.

The following compounds have reported results that may help.
compound	readout.type	quantitative.readout
Cc1nnc(-c2ccc3ncc(-c4ccc(S(C)=O)cc4)n3c2)o1 (stereo not drawn)	%Inh	12
Nc1nccc(-c2c(-c3ccc(F)cc3)ncn2C2CCN(CC(F)(F)F)CC2)n1 [SB-236560]	%Inh	0
c1ccc(-c2cc(-c3c[nH]nc3-c3ccccn3)ccn2)cc1 [GW576604]	%Inh	0
O=C(NCCNc1ccnc(Nc2ccc(F)cc2)n1)Nc1ccccc1F [GSK1379880]	%Inh	0
Cc1c(Cn2c(C)nn3c(=O)cc(N4CCOC(C)C4)nc23)cccc1C(F)(F)F (stereo not drawn) [GSK2344444]	%Inh	0
O=C(Nc1n[nH]c2cc(-c3cccc(F)c3)ccc12)C1CC1 [SB-735464]	%Inh	3
CCc1ccnc(/C=C/c2n[nH]c3cc(Sc4ccccc4C(=O)NC)ccc23)c1	%Inh	0
NS(=O)(=O)CCc1cccc(Nc2nccc(-c3c(-c4cccc(NC(=O)c5c(F)cccc5F)c4)nn4ccccc34)n2)c1 [GSK336735]	%Inh	8
Cc1cccc(-c2nc(Nc3ccc4ncsc4c3)c3ccccc3n2)n1 [GW867588]	%Inh	8
COc1cc2c(cc1OCCN1CCN(C)CC1)ncc1c3ccc(C#N)cc3[nH]c21	%Inh	7

Hi there! I need %Inh for each item below, if you can.
1. CN1c2ccc(CNc3ccc(F)cc3)cc2-c2c(cnn2C)S1(=O)=O
2. CSc1ccc(-c2cc3ncnc(SCC(=O)O)c3s2)cc1
3. Cc1cccc(Cn2ccn3c(=O)cc(N4CCOCC4)nc23)c1 [GSK2297542]

1. 0
2. 17
3. 2

====

Can you tell me %Inh for the items I'm about to list?
System: DDR1
test.parameters: concentration: 1 μM, replicates: in singlicate; n = 1
Numbers only, in %.

compound	%Inh [%]
Cc1ccc(NC(=O)c2ccnc(N3CCN(C)CC3)c2)cc1-c1ccc(C(=O)NCC2CC2)cc1	77
COc1ccc(COc2cc(-n3cnc4ccccc43)sc2C(N)=O)cc1	0
CN(C1=C(c2ccccc2)C(=O)NC1=O)c1ccccc1	0

Hi there! I need %Inh for each item below, if you can.
1. COc1ccc(Nc2nccc(N3CCC(NC(=O)Nc4cc(C)ccc4C)C3)n2)cc1 (centres unmarked)
2. COCCNC(=O)c1ccc(-c2cc(C(=O)NC3CC3)cc(F)c2C)cc1
3. COc1cc2ncn(-c3cc(OCc4sccc4Cl)c(C(N)=O)s3)c2cc1OC
4. O=C(Nc1cccc(-c2nn3ncccc3c2-c2ccnc(Nc3cccc(C(F)(F)F)c3)n2)c1)c1c(F)cccc1F
5. Cn1cc(-c2ccc3c(c2)CCN3C(=O)Cc2ccccc2Cl)c2c(N)ncnc21

1: 23; 2: 21; 3: 0; 4: 100; 5: 100

====

System: CAMKK2
test.parameters: concentration: 1 μM, replicates: in singlicate; n = 1
Can you tell me %Inh for the items I'm about to list?
Answers are plain numbers, in %.

The following compounds have reported results that may help.
compound	quantitative.readout
CCc1nc(-c2cccc(C)c2)c(-c2ccnc(NCc3ccccc3)c2)s1	12
O=C(NCCNc1ccnc(Nc2ccc(F)cc2)n1)Nc1ccccc1F	0
COc1ccc(Nc2nccc(N3CCC(NC(=O)Nc4cc(C)ccc4C)C3)n2)cc1 (centres unmarked)	0

Hi there! I need %Inh for each item below, if you can.
1. COc1cc2ncn(-c3cc(OCc4sccc4Cl)c(C(N)=O)s3)c2cc1OC
2. COc1cc2c(cc1OCCN1CCN(C)CC1)ncc1c3ccc(C#N)cc3[nH]c21

76
70

====

Tested on: GAK
test.parameters: concentration: 1 μM, replicates: in singlicate; n = 1
readout.type: %Inh (%)
Give bare numbers, in %.

The following molecules have reported results that may help.
molecule	%Inh (%)
COc1ccc(COc2cc(-n3cnc4ccccc43)sc2C(N)=O)cc1	17
N#Cc1ccc(-c2cc(-c3c[nH]nc3-c3ccccn3)ccn2)cc1	69
Fc1ccc(-c2ncn(CCCN3CCOCC3)c2-c2ccccn2)cc1	6
Fc1ccc(-c2nn3c(OCC(F)(F)F)cccc3c2-c2ccncc2)cc1	85

Now look at this one.
Tell me its %Inh given COc1ccc(Nc2nccc(N3CCC(NC(=O)Nc4cc(C)ccc4C)C3)n2)cc1 (centres unmarked) as the entry. 9

====

Can you tell me %Inh for the items I'm about to list?
Tested on: RIOK1
test.parameters: concentration: 1 μM, replicates: in singlicate; n = 1
One number for each entry, in %.

The following compounds have reported results that may help.
compound	u	%Inh
Cn1ccc2ncnc(Oc3ccc(NC(=O)Nc4ccncc4)c(Cl)c3)c21	%	0
COc1ccc(S(=O)(=O)NC2CCN(c3cc(C)nc(Nc4cccc(C#N)c4)n3)CC2)cc1.O=C(O)C(F)(F)F [GSK1653539]	%	5
Fc1ccc(-c2ncn(CCCN3CCOCC3)c2-c2ccccn2)cc1 [SB-211742]	%	27
COc1cc2ncn(-c3cc(OCc4sccc4Cl)c(C(N)=O)s3)c2cc1OC [GSK448459]	%	91.8
CCCCCc1nc2c(N)ncnc2n1CCCCC [SKF-97255]	%	0
c1ccc(-c2cc(-c3c[nH]nc3-c3ccccn3)ccn2)cc1 [GW576604]	%	37

Hi there! I need %Inh for each item below, if you can.
1. CSc1ccc(-c2cc3ncnc(SCC(=O)O)c3s2)cc1
2. O=c1cc(N2CCOCC2)nc2n(Cc3cccc(F)c3)ccn12 [GSK2297430]

1. 0
2. 35

Hi there! I need %Inh for each item below, if you can.
1. COCCNC(=O)c1ccc(-c2cc(C(=O)NC3CC3)cc(F)c2C)cc1 [GW868318]
2. O=C(NOCC1CC1)c1ccc(F)c(F)c1Nc1ccc(I)cc1Cl
3. CN(C1=C(c2ccccc2)C(=O)NC1=O)c1ccccc1 [SB-334860]
4. COC(=O)Nc1nc2cc(Oc3ccc(NC(=O)Nc4cc(F)ccc4F)cc3)ccc2[nH]1.Cl [GW701424]
5. Cc1ccc(NC(=O)c2ccnc(N3CCN(C)CC3)c2)cc1-c1ccc(C(=O)NCC2CC2)cc1 [GW775604]
6. NS(=O)(=O)c1cccc(-c2ccc3nccc(-c4cccc(S(N)(=O)=O)c4)c3c2)c1 [GW867253]
7. CC(C)(C)n1cnc2c(N)ncnc21 [SKF-97359]
8. C[C@@H](Oc1cc(-n2cnc3ccc(NC(=O)NC(C)(C)C)cc32)sc1C(N)=O)c1ccccc1Cl [GSK346294]

[0, 7, 0, 0, 0, 0, 2, 56]

Hi there! I need %Inh for each item below, if you can.
1. c1ccc(-c2n[nH]cc2-c2ccnc3ccccc23)nc1 [GW271431]
2. Nc1nccc(-c2c(-c3ccc(F)cc3)ncn2C2CCN(CC(F)(F)F)CC2)n1 [SB-236560]

1: 58; 2: 32

Tell me its %Inh given N#Cc1ccc(-c2cc(-c3c[nH]nc3-c3ccccn3)ccn2)cc1 [GW693028] as the entry. 0

Just for reference, paper PMC5540273 is where these values come from.
